# protocol_notes: total protein half-life in vivo (active degradation + dilution); higher = more stable protein
# condition_context: wild type E. coli NCM3722; growth: C-lim chemostat; doubling time 6 h
readout_label: total protein half-life in vivo

### Prompt Given MAEVTQLKRYDARPINWGKWFLIGIGMLVSAFILLVPMIYIFVQAFSKGLMPVLQNLADPDMLHAIWLTVMIALIAVPVNLVFGILLAWLVTRFNFPGRQLLLTLLDIPFAVSPVVAGLVYLLFYGSNGPLGGWLDEHNLQIMFSWPGMVLVTIFVTCPFVVRELVPVMLSQGSQEDEAAILLGASGWQMFRRVTLPNIRWALLYGVVLTNARAIGEFGAVSVVSGSIRGETLSLPLQIELLEQDYNTVGSFTAAALLTLMAIITLFLKSMLQWRLENQEKRAQQEEHHEH [P0AEB0] , state its recorded total protein half-life in vivo.
### Response 4.97 h

### Prompt Try the sequence MILFVGFLLMEIVMPQISRTALVPYSAEQMYQLVNDVQSYPQFLPGCTGSRILESTPGQMTAAVDVSKAGISKTFTTRNQLTSNQSILMNLVDGPFKKLIGGWKFTPLSQEACRIEFHLDFEFTNKLIELAFGRVFKELAANMVQAFTVRAKEVYSAR [P0AGL5]
### Response 0.545 h

### Prompt Try the sequence MTTMLEVAKRAGVSKATVSRVLSGNGYVSQETKDRVFQAVEESGYRPNLLARNLSAKSTQTLGLVVTNTLYHGIYFSELLFHAARMAEEKGRQLLLADGKHSAEEERQAIQYLLDLRCDAIMIYPRFLSVDEIDDIIDAHSQPIMVLNRRLRKNSSHSVWCDHKQTSFNAVAELINAGHQEIAFLTGSMDSPTSIERLAGYKDALAQHGIALNEKLIANGKWTPASGAEGVEMLLERGAKFSALVASNDDMAIGAMKALHERGVAVPEQVSVIGFDDIAIAPYTVPALSSVKIPVTEMIQEIIGRLIFMLDGGDFSPPKTFSGKLIRRDSLIAPSR
### Response 4.91 h

### Prompt Try the sequence MVAPIPAKRGRKPAVATAPATGQVQSLTRGLKLLEWIAESNGSVALTELAQQAGLPNSTTHRLLTTMQQQGFVRQVGELGHWAIGAHAFMVGSSFLQSRNLLAIVHPILRNLMEESGETVNMAVLDQSDHEAIIIDQVQCTHLMRMSAPIGGKLPMHASGAGKAFLAQLSEEQVTKLLHRKGLHAYTHATLVSPVHLKEDLAQTRKRGYSFDDEEHALGLRCLAACIFDEHREPFAAISISGPISRITDDRVTEFGAMVIKAAKEVTLAYGGMR
### Response 5.43 h

### Prompt Try the sequence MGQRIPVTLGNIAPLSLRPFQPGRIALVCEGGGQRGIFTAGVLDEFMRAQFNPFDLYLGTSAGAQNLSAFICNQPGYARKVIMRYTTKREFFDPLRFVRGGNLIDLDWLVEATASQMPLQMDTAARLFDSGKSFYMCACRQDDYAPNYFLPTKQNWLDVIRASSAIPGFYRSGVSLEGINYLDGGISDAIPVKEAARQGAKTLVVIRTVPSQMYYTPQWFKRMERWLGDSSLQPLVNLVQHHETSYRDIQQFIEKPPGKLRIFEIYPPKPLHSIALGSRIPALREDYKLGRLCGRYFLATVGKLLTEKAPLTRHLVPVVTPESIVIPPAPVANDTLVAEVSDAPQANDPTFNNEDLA
### Response 3.89 h

### Prompt Try the sequence MKATSEELAIFVSVVESGSFSRAAEQLGQANSAVSRAVKKLEMKLGVSLLNRTTRQLSLTEEGERYFRRVQSILQEMAAAESEIMETRNTPRGLLRIDAATPVVLHFLMPLIKPFRERYPEVTLSLVSSETIINLIERKVDVAIRAGTLTDSSLRARPLFNSYRKIIASPDYISRYGKPETIDDLKQHICLGFTEPASLNTWPIARSDGQLHEVKYGLSSNSGETLKQLCLSGNGIACLSDYMIDKEIARGELVELMADKVLPVEMPFSAVYYSDRAVSTRIRAFIDFLSEHVKTAPGGAVREA
### Response 5.1 h

### Prompt Try the sequence MKRLRNKMTTEELAECLGVAKQTVNRWIREKGWKTEKFPGVKGGRARLILVDTQVCEFIQNTPAFHNTPMLMEAEERIAEYAPGARAPAYRQIINAIDNMTDIEQEKVAQFLSREGIRNFLARLDIDESA
### Response 4.56 h

### Prompt Try the sequence MSNPILSWRRVRALCVKETRQIVRDPSSWLIAVVIPLLLLFIFGYGINLDSSKLRVGILLEQRSEAALDFTHTMTGSPYIDATISDNRQELIAKMQAGKIRGLVVIPVDFAEQMERANATAPIQVITDGSEPNTANFVQGYVEGIWQIWQMQRAEDNGQTFEPLIDVQTRYWFNPAAISQHFIIPGAVTIIMTVIGAILTSLVVAREWERGTMEALLSTEITRTELLLCKLIPYYFLGMLAMLLCMLVSVFILGVPYRGSLLILFFISSLFLLSTLGMGLLISTITRNQFNAAQVALNAAFLPSIMLSGFIFQIDSMPAVIRAVTYIIPARYFVSTLQSLFLAGNIPVVLVVNVLFLIASAVMFIGLTWLKTKRRLD [P0AFQ2]
### Response 5.36 h

### Prompt Try the sequence MIEIESRELADIPVLHAYPVGQKDTPLPCVIFYHGFTSSSLVYSYFAVALAQAGLRVIMPDAPDHGSRFSGDAARRLNQFWQILLQSMQEFTTLRAAIAEENWLLDDRLAVGGASMGAMTALGITARHPTVRCTASMMGSGYFTSLARSLFPPLIPETAAQQNEFNNIVAPLAEWEATNHLEQLSDRPLLLWHGLDDDVVPADESLRLQQALSETGRDKLLTCSWQPGVRHRITPEALDAAVTFFRQHL
### Response 5.72 h

### Prompt Try the sequence MEYQLTLNWPDFLERHWQKRPVVLKRGFNNFIDPISPDELAGLAMESEVDSRLVSHQDGKWQVSHGPFESYDHLGETNWSLLVQAVNHWHEPTAALMRPFRELPDWRIDDLMISFSVPGGGVGPHLDQYDVFIIQGTGRRRWRVGEKLQMKQHCPHPDLLQVDPFEAIIDEELEPGDILYIPPGFPHEGYALENAMNYSVGFRAPNTRELISGFADYVLQRELGGNYYSDPDVPPRAHPADVLPQEMDKLREMMLELINQPEHFKQWFGEFISQSRHELDIAPPEPPYQPDEIYDALKQGEVLVRLGGLRVLRIGDDVYANGEKIDSPHRPALDALASNIALTAENFGDALEDPSFLAMLAALVNSGYWFFEG
### Response 5.25 h

====

Give total protein half-life in vivo for every item shown.
# protocol_notes: total protein half-life in vivo (active degradation + dilution); higher = more stable protein
# condition_context: wild type E. coli NCM3722; growth: P-lim chemostat; doubling time 12 h
Number in h, nothing else.

### Prompt Given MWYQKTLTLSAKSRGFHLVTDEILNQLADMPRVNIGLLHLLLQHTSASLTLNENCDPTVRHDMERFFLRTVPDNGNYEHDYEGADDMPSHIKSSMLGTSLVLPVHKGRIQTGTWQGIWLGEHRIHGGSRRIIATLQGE [P0AF48] , state its recorded total protein half-life in vivo.
### Response 11.3

### Prompt Try the sequence MDTELLKTFLEVSRTRHFGRAAESLYLTQSAVSFRIRQLENQLGVNLFTRHRNNIRLTAAGEKLLPYAETLMSTWQAARKEVAHTSRHNEFSIGASASLWECMLNQWLGRLYQNQDAHTGLQFEARIAQRQSLVKQLHERQLDLLITTEAPKMDEFSSQLLGYFTLALYTSAPSKLKGDLNYLRLEWGPDFQQHEAGLIGADEVPILTTSSAELAQQQIAMLNGCTWLPVSWARKKGGLHTVVDSTTLSRPLYAIWLQNSDKNALIRDLLKINVLDEVY [P0A8R9]
### Response 11.7

====

# protocol_notes: total protein half-life in vivo (active degradation + dilution); higher = more stable protein
# condition_context: wild type E. coli NCM3722; growth: P-lim chemostat; doubling time 6 h
Give total protein half-life in vivo for every item shown.
Number in h, nothing else.

### Prompt Given MQYNPLGKTDLRVSRLCLGCMTFGEPDRGNHAWTLPEESSRPIIKRALEGGINFFDTANSYSDGSSEEIVGRALRDFARREDVVVATKVFHRVGDLPEGLSRAQILRSIDDSLRRLGMDYVDILQIHRWDYNTPIEETLEALNDVVKAGKARYIGASSMHASQFAQALELQKQHGWAQFVSMQDHYNLIYREEEREMLPLCYQEGVAVIPWSPLARGRLTRPWGETTARLVSDEVGKNLYKESDENDAQIAERLTGVSEELGATRAQVALAWLLSKPGIAAPIIGTSREEQLDELLNAVDITLKPEQIAELETPYKPHPVVGFK , state its recorded total protein half-life in vivo.
### Response 4.28

### Prompt Try the sequence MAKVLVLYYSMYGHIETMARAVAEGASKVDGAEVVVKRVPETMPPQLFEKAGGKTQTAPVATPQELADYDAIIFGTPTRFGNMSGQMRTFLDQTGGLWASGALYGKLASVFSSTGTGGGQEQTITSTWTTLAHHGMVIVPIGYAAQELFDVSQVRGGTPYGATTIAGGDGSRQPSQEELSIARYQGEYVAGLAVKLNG [P0A8G6]
### Response 5.69

### Prompt Try the sequence MKYRIALAVSLFALSAGSYATTLCQEKEQNILKEISYAEKHQNQNRIDGLNKALSEVRANCSDSQLRADHQKKIAKQKDEVAERQQDLAEAKQKGDADKIAKRERKLAEAQEELKKLEARDY
### Response 4.12
